// values below are reported self-cleavage kobs at 2500 uM GlcN6P
B1: glmS ribozyme (parent)
chain: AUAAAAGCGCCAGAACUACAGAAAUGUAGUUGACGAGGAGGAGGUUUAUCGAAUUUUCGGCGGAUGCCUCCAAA

# Variants of: B1
# methodNotes: self-cleavage kobs at 2500 uM GlcN6P; higher = faster cleavage; RNA array
# runParameters: with glucosamine-6-phosphate
Variants at the floor of the assay were thinned out.
metricName: self-cleavage kobs at 2500 uM GlcN6P

{"variantId": "A15C A39U A42C C67G", "recordedMeasurement": "< 1e-05 s⁻¹"}
{"variantId": "G7A G9U C50U", "recordedMeasurement": "< 1e-05 s⁻¹"}
{"variantId": "C16G G35C U55A U56A", "recordedMeasurement": "< 1e-05 s⁻¹"}
{"variantId": "G9C G40A", "recordedMeasurement": "< 1e-05 s⁻¹"}
{"variantId": "C8U G9A", "recordedMeasurement": "< 1e-05 s⁻¹"}
{"variantId": "G43U G59A G60C", "recordedMeasurement": "< 1e-05 s⁻¹"}
{"variantId": "C11G G13U G29C", "recordedMeasurement": "< 1e-05 s⁻¹"}
{"variantId": "G38C G62U", "recordedMeasurement": "< 1e-05 s⁻¹"}
{"variantId": "A12G G43U A48C U69G", "recordedMeasurement": "< 1e-05 s⁻¹"}
{"variantId": "G7C A14U G32U A36G G43C", "recordedMeasurement": "< 1e-05 s⁻¹"}
{"variantId": "C11U A52C C68U C71G", "recordedMeasurement": "0.0003 s⁻¹"}
{"variantId": "A14U A48C U69A", "recordedMeasurement": "< 1e-05 s⁻¹"}
{"variantId": "U31C C71G", "recordedMeasurement": "0.000213 s⁻¹"}
{"variantId": "C50U C70U C71A", "recordedMeasurement": "0.000152 s⁻¹"}
{"variantId": "G38C U46G C68G", "recordedMeasurement": "< 1e-05 s⁻¹"}
{"variantId": "G38C A42G U49G A52G G63C", "recordedMeasurement": "< 1e-05 s⁻¹"}
{"variantId": "A6G G9C C70G", "recordedMeasurement": "< 1e-05 s⁻¹"}
{"variantId": "A12G C71U", "recordedMeasurement": "0.000525 s⁻¹"}
{"variantId": "U31C A39C", "recordedMeasurement": "0.00058 s⁻¹"}
{"variantId": "G40U G63A", "recordedMeasurement": "< 1e-05 s⁻¹"}
{"variantId": "A15G C50G C68U", "recordedMeasurement": "0.000371 s⁻¹"}
{"variantId": "G38A C58U C68G", "recordedMeasurement": "6.16e-05 s⁻¹"}
{"variantId": "C10U G35C G62C", "recordedMeasurement": "< 1e-05 s⁻¹"}
{"variantId": "C11U A15G G37C U47C U69G", "recordedMeasurement": "0.000136 s⁻¹"}
{"variantId": "C11G A52U C68U", "recordedMeasurement": "< 1e-05 s⁻¹"}
{"variantId": "C8U C16G G29C", "recordedMeasurement": "< 1e-05 s⁻¹"}
{"variantId": "C11U A36C A39G C67G", "recordedMeasurement": "< 1e-05 s⁻¹"}
{"variantId": "A36G A52U", "recordedMeasurement": "< 1e-05 s⁻¹"}
{"variantId": "G13C G41A U45A C70U", "recordedMeasurement": "8.8e-05 s⁻¹"}
{"variantId": "G35C U49A", "recordedMeasurement": "< 1e-05 s⁻¹"}
{"variantId": "A6U U54G", "recordedMeasurement": "0.000122 s⁻¹"}
{"variantId": "U30C C71U", "recordedMeasurement": "0.000195 s⁻¹"}
{"variantId": "U49C A53C", "recordedMeasurement": "< 1e-05 s⁻¹"}
{"variantId": "U30G G63C A64U", "recordedMeasurement": "< 1e-05 s⁻¹"}
{"variantId": "G35C U46G U56A", "recordedMeasurement": "< 1e-05 s⁻¹"}
{"variantId": "G9C G32C C70A", "recordedMeasurement": "< 1e-05 s⁻¹"}
{"variantId": "G29U A53G", "recordedMeasurement": "0.0021 s⁻¹"}
{"variantId": "A6C U31A A48C", "recordedMeasurement": "< 1e-05 s⁻¹"}
{"variantId": "G41C U46A G60C", "recordedMeasurement": "< 1e-05 s⁻¹"}
{"variantId": "A6U C8U A52U C67U C71U", "recordedMeasurement": "< 1e-05 s⁻¹"}
{"variantId": "G40U G63C", "recordedMeasurement": "< 1e-05 s⁻¹"}
{"variantId": "G43U C70U", "recordedMeasurement": "2.17e-05 s⁻¹"}
